Provenance of the data: ChEMBL document CHEMBL5154930

Each entry below carries its reported IC50.
System: MOLM-13
Experiment: cells
Settings: Homo sapiens, MOLM-13, 192 h
Description: Anticancer activity against human MOLM-13 cells harbouring MLL-AF9 assessed as inhibition of cell growth treated for 8 days measured by CCK-8 kit method
Non-standard residues stand in square brackets, D forms with d. Residues, ends and D or L forms follow the SMILES beside them. *: point of attachment. X6 = c1ccc(C[C@H](N*)c2nc3cccc(-c4ccccc4)c3[nH]2)cc1; X4 = CC(C)[C@H](N*)c1nc2cccc(-c3ccccc3)c2[nH]1; X1 = C[C@H](N*)c1nc2cccc(-c3ccccc3)c2[nH]1; Ala(cPent) = N[C@@H](CC1CCCC1)C(=O)O; Dap(Me) = CNC[C@H](N)C(=O)O; Dap = NC[C@H](N)C(=O)O; Bz = O=C(c1ccccc1)*
Give the value in µM but do not write µM after it.

INSERT INTO assay_data (molecule, measured_target, metric_name, unit_tag, result) VALUES
  ('CNC[C@H](NC(=O)[C@@H](NC(=O)[C@@H]1CCCN1C(=O)c1ccccc1)C(C)C)C(=O)N[C@@H](CC1CCCC1)C(=O)N[C@@H](C)c1nc2cccc(-c3ccccc3)c2[nH]1 (Bz-PV[Dap(Me)][Ala(cPent)]-X1)', 'MOLM-13', 'IC50', 'µM', 0.74);

Prompt: Data request, read-out IC50, for CC(C)N(C[C@H]1O[C@@H](n2cnc3c(N)ncnc32)[C@H](O)[C@@H]1O)[C@H]1C[C@@H](CCc2nc3cc(C(C)(C)C)ccc3[nH]2)C1 [PINOMETOSTAT]
Completion: 0.03

Prompt: Any idea what IC50 was measured for CC(=O)N[C@@H](CC(C)C)C(=O)N1CCC[C@H]1C(=O)N[C@H](C(=O)N[C@@H](CN)C(=O)N[C@@H](CC1CCCC1)C(=O)N[C@H](c1nc2cccc(-c3ccccc3)c2[nH]1)C(C)C)C(C)C (Ac-LPV[Dap][Ala(cPent)]-X4) ?
Completion: 0.64

Prompt: Given CC(=O)N[C@@H](CC(C)C)C(=O)N1CCC[C@H]1C(=O)N[C@H](C(=O)N[C@@H](CN)C(=O)N[C@@H](CC1CCCC1)C(=O)N[C@@H](Cc1ccccc1)c1nc2cccc(-c3ccccc3)c2[nH]1)C(C)C (Ac-LPV[Dap][Ala(cPent)]-X6) , state its recorded IC50.
Completion: 0.44

====

Test: Apparent permeability across apical to basolateral side in human Caco-2 cells
Assay type: ADME, cell-based
Non-standard residues stand in square brackets, D forms with d. Residues, ends and D or L forms follow the SMILES beside them. *: point of attachment. X2 = c1ccc(-c2cn(CC3CCCCC3)c([C@@H]3CCCN3*)n2)cc1; X1 = C[C@H](N*)c1nc2cccc(-c3ccccc3)c2[nH]1; Ala(cPent) = N[C@@H](CC1CCCC1)C(=O)O; Pentanoyl(4-Me) = CC(C)CCC(=O)*; Dap(Me) = CNC[C@H](N)C(=O)O; Dap = NC[C@H](N)C(=O)O
Measured Papp A→B accompanies every entry in the list below.
Write it as a number; the unit ×10⁻⁶ cm/s goes unstated.

Prompt: Quick one: Papp A→B for CNC[C@H](NC(=O)[C@@H](NC(=O)[C@@H]1CCCN1C(=O)CCC(C)C)C(C)C)C(=O)N[C@@H](CC1CCCC1)C(=O)N[C@@H](C)c1nc2cccc(-c3ccccc3)c2[nH]1 ({Pentanoyl(4-Me)}-PV[Dap(Me)][Ala(cPent)]-X1) ?
Completion: 1.97

Prompt: So what does the record say about Papp A→B for CC(C)CCC(=O)N1CCC[C@H]1C(=O)N[C@H](C(=O)N[C@@H](CN)C(=O)N[C@@H](CC1CCCC1)C(=O)N[C@@H](C)c1nc2cccc(-c3ccccc3)c2[nH]1)C(C)C ({Pentanoyl(4-Me)}-PV[Dap][Ala(cPent)]-X1) ?
Completion: 1.82

Prompt: Need Papp A→B of CC(C)(C)NCC(O)COc1cccc2c1CC(O)C(O)C2 (stereo not given) , thanks.
Completion: 0.13

Prompt: Would you kindly share the measured Papp A→B for CC(C)CCC(=O)N1CCC[C@H]1C(=O)N[C@H](C(=O)N[C@@H](CN)C(=O)N[C@@H](CC1CCCC1)C(=O)N1CCC[C@H]1c1nc(-c2ccccc2)cn1CC1CCCCC1)C(C)C ({Pentanoyl(4-Me)}-PV[Dap][Ala(cPent)]-X2) ?
Completion: 0.73

Prompt: Find the recorded Papp A→B belonging to CC(C)NCC(O)COc1cccc2ccccc12 (stereo not given) and report it.
Completion: 18.5

====

Each record here notes measured pIC50.
System: MOLM-13
Test: cells
Details: Homo sapiens, MOLM-13, 192 h
Non-standard residues stand in square brackets, D forms with d. Residues, ends and D or L forms follow the SMILES beside them. *: point of attachment. X2 = c1ccc(-c2cn(CC3CCCCC3)c([C@@H]3CCCN3*)n2)cc1; X3 = CC(C)C[C@H](N*)c1nc2cccc(-c3ccccc3)c2[nH]1; Ala(cPent) = N[C@@H](CC1CCCC1)C(=O)O; Pentanoyl(4-Me) = CC(C)CCC(=O)*; Dap = NC[C@H](N)C(=O)O
Lab note — pIC50 values are minus log10 of concentrations in M.

INSERT INTO results (compound, result) VALUES
  ('CC(C)CCC(=O)N1CCC[C@H]1C(=O)N[C@H](C(=O)N[C@@H](CN)C(=O)N[C@@H](CC1CCCC1)C(=O)N1CCC[C@H]1c1nc(-c2ccccc2)cn1CC1CCCCC1)C(C)C ({Pentanoyl(4-Me)}-PV[Dap][Ala(cPent)]-X2)', 5.49);

Please examine the following record next.
Prompt: State the recorded pIC50 for this entry: CC(=O)N[C@@H](CC(C)C)C(=O)N1CCC[C@H]1C(=O)N[C@H](C(=O)N[C@@H](CN)C(=O)N[C@@H](CC1CCCC1)C(=O)N[C@@H](CC(C)C)c1nc2cccc(-c3ccccc3)c2[nH]1)C(C)C (Ac-LPV[Dap][Ala(cPent)]-X3)
Completion: 6.31

====

Assay: Stability in human plasma assessed as compound remaining measured upto 1440 mins by HPLC analysis
Type: ADME, cell-free
Settings: read-out: Stability
Non-standard residues stand in square brackets, D forms with d. Residues, ends and D or L forms follow the SMILES beside them. *: point of attachment. X2 = c1ccc(-c2cn(CC3CCCCC3)c([C@@H]3CCCN3*)n2)cc1; X1 = C[C@H](N*)c1nc2cccc(-c3ccccc3)c2[nH]1; Ala(cPent) = N[C@@H](CC1CCCC1)C(=O)O; Pentanoyl(4-Me) = CC(C)CCC(=O)*; Dap(Me) = CNC[C@H](N)C(=O)O; Dap = NC[C@H](N)C(=O)O
Metric name: remaining at 24 h
Returns: string containing the number followed by the unit.

INSERT INTO measurements (compound, result) VALUES
  ('CNC[C@H](NC(=O)[C@@H](NC(=O)[C@@H]1CCCN1C(=O)CCC(C)C)C(C)C)C(=O)N[C@@H](CC1CCCC1)C(=O)N[C@@H](C)c1nc2cccc(-c3ccccc3)c2[nH]1 ({Pentanoyl(4-Me)}-PV[Dap(Me)][Ala(cPent)]-X1)', '81.5%');

Prompt: Can you look up the measured remaining at 24 h of CC(C)CCC(=O)N1CCC[C@H]1C(=O)N[C@H](C(=O)N[C@@H](CN)C(=O)N[C@@H](CC1CCCC1)C(=O)N[C@@H](C)c1nc2cccc(-c3ccccc3)c2[nH]1)C(C)C ({Pentanoyl(4-Me)}-PV[Dap][Ala(cPent)]-X1) for me?
Completion: 83%

Prompt: Consider the compound CC(C)NCC(O)COc1cccc2ccccc12 (stereo not given) and give its measured remaining at 24 h.
Completion: 72.9%

Prompt: Given CC(C)CCC(=O)N1CCC[C@H]1C(=O)N[C@H](C(=O)N[C@@H](CN)C(=O)N[C@@H](CC1CCCC1)C(=O)N1CCC[C@H]1c1nc(-c2ccccc2)cn1CC1CCCCC1)C(C)C ({Pentanoyl(4-Me)}-PV[Dap][Ala(cPent)]-X2) , state its recorded remaining at 24 h.
Completion: 94%

Prompt: GET /values?readout=remaining at 24 h&item= CC(C)(C)NCC(O)COc1cccc2c1CC(O)C(O)C2 (stereo not given)
Completion: 97.1%

====

Target: Protein AF-9 (Homo sapiens)
Sequence (P42568 whole entry, the tested form may be a part): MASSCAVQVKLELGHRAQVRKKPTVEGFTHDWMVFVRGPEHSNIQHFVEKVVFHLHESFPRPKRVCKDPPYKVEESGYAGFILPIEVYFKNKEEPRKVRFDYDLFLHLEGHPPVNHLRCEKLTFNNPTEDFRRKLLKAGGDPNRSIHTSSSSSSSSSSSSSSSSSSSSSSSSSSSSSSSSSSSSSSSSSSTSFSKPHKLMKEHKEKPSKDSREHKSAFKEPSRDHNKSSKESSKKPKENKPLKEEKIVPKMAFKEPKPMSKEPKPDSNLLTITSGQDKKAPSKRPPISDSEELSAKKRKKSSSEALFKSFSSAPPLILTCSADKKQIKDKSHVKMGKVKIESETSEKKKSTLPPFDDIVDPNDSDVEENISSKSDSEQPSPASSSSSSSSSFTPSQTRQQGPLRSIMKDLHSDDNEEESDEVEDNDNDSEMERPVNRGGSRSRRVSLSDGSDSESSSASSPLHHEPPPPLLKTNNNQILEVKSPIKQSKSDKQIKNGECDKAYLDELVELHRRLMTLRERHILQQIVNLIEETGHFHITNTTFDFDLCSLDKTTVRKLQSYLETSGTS
Test: Binding affinity to MBP-tagged human recombinant AF9 (487 to 568 residues) incubated for 40 mins by measuring fluorescence polarization by microplate reader method
Non-standard residues stand in square brackets, D forms with d. Residues, ends and D or L forms follow the SMILES beside them. *: point of attachment. X6 = c1ccc(C[C@H](N*)c2nc3cccc(-c4ccccc4)c3[nH]2)cc1; X7 = CC[C@H](C)[C@H](N*)c1nc2cccc(-c3ccccc3)c2[nH]1; X3 = CC(C)C[C@H](N*)c1nc2cccc(-c3ccccc3)c2[nH]1; X5 = c1ccc(-c2cccc3nc([C@@H]4CCCN4*)[nH]c23)cc1; X4 = CC(C)[C@H](N*)c1nc2cccc(-c3ccccc3)c2[nH]1; X1 = C[C@H](N*)c1nc2cccc(-c3ccccc3)c2[nH]1; Ala(cPent) = N[C@@H](CC1CCCC1)C(=O)O; Pentanoyl(4-Me) = CC(C)CCC(=O)*; Dap(Me) = CNC[C@H](N)C(=O)O; Dap = NC[C@H](N)C(=O)O; Bz = O=C(c1ccccc1)*
Metric name: pKi
The meaning of pKi here: minus log10 of the concentration in molar units.

INSERT INTO assay_data (molecule, metric_name, result) VALUES
  ('CC(=O)N[C@@H](CC(C)C)C(=O)N1CCC[C@H]1C(=O)N[C@H](C(=O)N[C@@H](CN)C(=O)N[C@@H](CC1CCCC1)C(=O)N[C@@H](C)c1nc2cccc(-c3ccccc3)c2[nH]1)C(C)C (Ac-LPV[Dap][Ala(cPent)]-X1)', 'pKi', 7.77),
  ('CC(=O)N[C@@H](CC(C)C)C(=O)N1CCC[C@H]1C(=O)N[C@H](C(=O)N[C@@H](CN)C(=O)N[C@@H](CC1CCCC1)C(=O)N[C@@H](CC(C)C)c1nc2cccc(-c3ccccc3)c2[nH]1)C(C)C (Ac-LPV[Dap][Ala(cPent)]-X3)', 'pKi', 7.72),
  ('CC[C@@H](C)[C@H](NC(=O)[C@@H]1CCCN1C(=O)[C@H](CC(C)C)NC(C)=O)C(=O)N[C@@H](CO)C(=O)N[C@H](C(=O)N1CCC[C@H]1C(=O)N[C@@H](CC(C)C)C(=O)N(C)C)[C@@H](C)CC', 'pKi', 6.80);

Prompt: If you can, please state the reported pKi value of CC(=O)N[C@@H](CC(C)C)C(=O)N1CCC[C@H]1C(=O)N[C@H](C(=O)N[C@@H](CN)C(=O)N[C@@H](CC1CCCC1)C(=O)N[C@H](c1nc2cccc(-c3ccccc3)c2[nH]1)C(C)C)C(C)C (Ac-LPV[Dap][Ala(cPent)]-X4) .
Completion: 7.54

Prompt: Dear colleague, I am looking for the recorded pKi of the following molecule: CC(C)CCC(=O)N1CCC[C@H]1C(=O)N[C@H](C(=O)N[C@@H](CN)C(=O)N[C@@H](CC1CCCC1)C(=O)N[C@@H](C)c1nc2cccc(-c3ccccc3)c2[nH]1)C(C)C ({Pentanoyl(4-Me)}-PV[Dap][Ala(cPent)]-X1)
Completion: 8.05

Prompt: Bench note: what pKi did CC(=O)N[C@@H](CC(C)C)C(=O)N1CCC[C@H]1C(=O)N[C@H](C(=O)N[C@@H](CN)C(=O)N[C@@H](CC1CCCC1)C(=O)N1CCC[C@H]1c1nc2cccc(-c3ccccc3)c2[nH]1)C(C)C (Ac-LPV[Dap][Ala(cPent)]-X5) show?
Completion: 7.66

Prompt: Look up pKi for this molecule: CNC[C@H](NC(=O)[C@@H](NC(=O)[C@@H]1CCCN1C(=O)c1ccccc1)C(C)C)C(=O)N[C@@H](CC1CCCC1)C(=O)N[C@@H](C)c1nc2cccc(-c3ccccc3)c2[nH]1 (Bz-PV[Dap(Me)][Ala(cPent)]-X1)
Completion: 7.49

Prompt: Suppose we examine the molecule CC(C)[C@H](NC(=O)[C@@H]1CCCN1C(=O)c1ccccc1)C(=O)N[C@@H](CN)C(=O)N[C@@H](CC1CCCC1)C(=O)N[C@@H](C)c1nc2cccc(-c3ccccc3)c2[nH]1 (Bz-PV[Dap][Ala(cPent)]-X1) ; what pKi value has been reported?
Completion: 7.82

Prompt: # lookup: pKi of CNC[C@H](NC(=O)[C@@H](NC(=O)[C@@H]1CCCN1C(=O)CCC(C)C)C(C)C)C(=O)N[C@@H](CC1CCCC1)C(=O)N[C@@H](C)c1nc2cccc(-c3ccccc3)c2[nH]1 ({Pentanoyl(4-Me)}-PV[Dap(Me)][Ala(cPent)]-X1)
Completion: 8.05

Prompt: # query: pKi of entry CC[C@H](C)[C@H](NC(=O)[C@H](CC1CCCC1)NC(=O)[C@H](CN)NC(=O)[C@@H](NC(=O)[C@@H]1CCCN1C(=O)[C@H](CC(C)C)NC(C)=O)C(C)C)c1nc2cccc(-c3ccccc3)c2[nH]1 (Ac-LPV[Dap][Ala(cPent)]-X7)
Completion: 7.64

Prompt: Param item = CC(=O)N[C@@H](CC(C)C)C(=O)N1CCC[C@H]1C(=O)N[C@H](C(=O)N[C@@H](CN)C(=O)N[C@@H](CC1CCCC1)C(=O)N[C@@H](Cc1ccccc1)c1nc2cccc(-c3ccccc3)c2[nH]1)C(C)C (Ac-LPV[Dap][Ala(cPent)]-X6) ; retrieve measured pKi.
Completion: 7.89

Prompt: Look at this molecule and give its reported pKi. CC[C@H](C)[C@H](NC(=O)[C@H](CO)NC(=O)[C@@H](NC(=O)[C@@H]1CCCN1C(=O)[C@H](CC(C)C)NC(C)=O)C(C)C)C(=O)N1CCC[C@H]1C(=O)N[C@@H](CC(C)C)C(=O)N(C)C (HELM PEPTIDE1{[ac].L.P.V.S.I.P.L.[CN(C)[*:1]]}$$$$V2.0)
Completion: 6.80
